# measured_target: pre-pro-insulin glargine
Measured desThr, listed per entry for reference.
Give just the number in area %; leave the unit off.

Here is how some proteins turned out for desThr.
Exam item: Which desThr is reported for this protein? trypsin variant SEQ ID NO: 104 (protein) IVGGYTCAANSIPYQVSLNSGSHRCGGSLINSQWVVSAAHCYKSRIQVRLGEHNIHVLEGNEQFINAAKIITHPNFNPNTLDNDIMLIKLSSPATLNSNVATVSLPTSCAAAGTECLISGWGNTCSSGSSMPSLLQCLKAPVLSDSSCKSSYPGQITGNMICVGFLEGGADACQGDSGGPVVCNGQLQGIVSSGYGCAQKNKPGVYTKVCNYVNWIQQTIAAN
Marked response: 1

Exam item: Which desThr is reported for this protein? trypsin variant SEQ ID NO: 92 (protein) IVGGYTCAANSIPYQVSLNSGSHRCGGSLINSQWVVSAAHCYKPRIQVRLGEHNIHVLEGNEQFINAAKIITHPNFNPNTLDNDIMLIKLSSPATLNSAVATVSLPTSCAAAGTECLISGWGNTCSSGSSMPSLLQCLKAPVLSDSSCKSSYPGQITGNMICVGFLEGGKDACQGDSGGPVVCNGQLQGIVSSGYGCAQKNKPGVYTKVCNYVNWIQQTIAAN
Marked response: 0.6

Others:
Exam item: Which desThr is reported for this protein? trypsin variant SEQ ID NO: 11 (protein) IVGGYTCAANSIPYQVSLNSGSHRCGGSLINSQWVVSAAHCYKSRIQVRLGEHNIDVLEGNEQFINAAKIITHPNFNGNTLDNDIMLIKLSSPATLNSNVATVSLPRSCAAAGTECLISGWGNTKSSGSSYPSLLQCLKAPVLSDSSCKSSYPGQITGNMICVGFLEGGKDACQGDSGGPVVCNGQLQGIVSSGYGCAQKNKPGVYTKVCNYVNWIQQTIAAN
Marked response: 2.2

Exam item: Which desThr is reported for this protein? trypsin variant SEQ ID NO: 102 (protein) IVGGYTCAANSIPYQVSLNSGSHRCGGSLINSQWVVSAAHCYKPRIQVRLGEHNIHVLEGNEQFINAAKIITHPNFNPNTLDNDIMLIKLSSPATLNSHVATVSLPTSCAAAGTECLISGWGNTSSSGSSMPSLLQCLKAPVLSDSSCKSSYPGQITGNMICVGFLEGGADACQGDSGGPVVCNGQLQGIVSSGYGCAQKNKPGVYTKVCNYVNWIQQTIAAN
Marked response: 1.2

Exam item: Which desThr is reported for this protein? trypsin variant SEQ ID NO: 109 (protein) IVGGYTCAANSIPYQVSLNSGSHRCGGSLINSQWVVSAAHCYKSRIQVRLGEHNIHVLEGNEQFINAAKIITHPNFNGNTLDNDIMLIKLSSPATLNSNVATVSLPTSCAAAGTECLISGWGNTCSSGSSMPSLLQCLKAPVLSDSSCKSSYPGQITGNMICVGFLEGGADACQGDSGGPVVCNGQLQGIVSSGYGCAQKNKPGVYTKVCNYVNWIQQTIAAN
Marked response: 0.5

Exam item: Which desThr is reported for this protein? trypsin variant SEQ ID NO: 116 (protein) IVGGYTCAANSIPYQVSLNSGSHRCGGSLINSQWVVSAAHCYKPRIQVRLGEHNIHVLEGNEQFINAAKIITHPNFNGNTLDNDIMLIKLSSPATLNSNVATVSLPTSCAAAGTECLISGWGNTSSSGSSMPSLLQCLKAPVLSDSSCKSSYPGQITGNMICVGFLEGGADACQGDSGGPVVCNGQLQGIVSSGYGCAQKNKPGVYTKVCNYVNWIQQTIAAN
Marked response: 0.6

Exam item: Which desThr is reported for this protein? trypsin variant SEQ ID NO: 14 (protein) IVGGYTCAANSIPYQVSLNSGSHRCGGSLINSQWVVSAAHCYKSRIQVRLGEHNIDVLEGNEQFINAAKIITHPNFNGNTLDNDIMLIKLSSPATLNSHVATVSLPRSCAAAGTECLISGWGNTKSSGSSYPSLLQCLKAPVLSDSSCKSSYPGQITGNMICVGFLEGGKDACQGDSGGPVVCNGQLQGIVSSGYGCAQKNKPGVYTKVCNYVNWIQQTIAAN
Marked response: 2.4

Exam item: Which desThr is reported for this protein? trypsin variant SEQ ID NO: 90 (protein) IVGGYTCAANSIPYQVSLNSGSHRCGGSLINSQWVVSAAHCYKPRIQVRLGEHNIHVLEGNEQFINAAKIITHPNFNPNTLDNDIMLIKLSSPATLNSHVATVSLPTSCAAAGTECLISGWGNTASSGSSMPSLLQCLKAPVLSDSSCKSSYPGQITGNMICVGFLEGGKDSCQGDSGGPVVCNGQLQGIVSSGYGCAQKNKPGVYTKVCNYVNWIQQTIAAN
Marked response: 0.2

Exam item: Which desThr is reported for this protein? trypsin variant SEQ ID NO: 24 (protein) IVGGYTCAANSIPYQVSLNSGSHRCGGSLINSQWVVSAAHCYKSRIQVRLGEHNIDVLEGNEQFINAAKIITHPNFNGNTLDNDIMLIKLSSPATLNSRVATVSLPRSCAAAGTECLISGWGNTKSSGSSYPSLLQCLKAPVLSDSSCKSSYPGQITGNMICVGFLEGGYDACQGDSGGPVVCNGQLQGIVSSGYGCAQKNKPGVYTKVCNYVNWIQQTIAAN
Marked response: 2.8

Exam item: Which desThr is reported for this protein? trypsin variant SEQ ID NO: 82 (protein) IVGGYTCAANSIPYQVSLNSGSHRCGGSLINSQWVVSAAHCYKPRIQVRLGEHNIHVLEGNEQFINAAKIITHPNFNPNTLDNDIMLIKLSSPATLNSHVATVSLPRSCAAAGTECLISGWGNTCSSGSSMPSLLQCLKAPVLSDSSCKSSYPGQITGNMICVGFLEGGKDACQGDSGGPVVCNGQLQGIVSSGYGCAQKNKPGVYTKVCNYVNWIQQTIAAN
Marked response: 0.3
